Test: Membrane permeability test of cyclic peptides (Caco-2, modified/improved method of WO 2018/124162)
Settings: human, Caco-2, Caco-2 (membrane permeability), Table 10, cyclic peptides containing Ser(S-4-F2-Pyrro-Me) (G) or Nva(2-R-4-F2-Pyrro) (H)
*1 amine or outer side, *2 acyl side, *3 side chain or, on linkers, in order; H or OH if unused. Where a SMILES comes first, the peptide text is derived from it. Bridges are numbered along the chain shown (N, C = ends). [ ]: non-standard residue; d: D form. The star is where a group is joined. ξ: configuration not given here. X5 = O=C([C@H](CCC[C@@H]1CC(F)(F)CN1)N[*:1])[*:2]; Pro(4,4-F2)ψ(CH2) = FC1(F)CN[C@H](C*)C1; NMeF = CN[C@@H](Cc1ccccc1)C(=O)O; NMeGABA = CN(CCCC(=O)[*:2])[*:1]; NMeL = CN[C@@H](CC(C)C)C(=O)O; NMeV = CN[C@H](C(=O)O)C(C)C; NMeAbu = CC[C@H](NC)C(=O)O; Piperidide = C1CCN(*)CC1; NBuGly = CCCCNCC(=O)O; ξNMeA = CNC(C)C(=O)O; Sar = CNCC(=O)O
property: Papp (×10⁻⁶ cm/s)

CCCCN1CC(=O)N(C)[C@@H](Cc2ccccc2)C(=O)N(C)[C@@H](CC(C)C)C(=O)N[C@@H](C(C)C)C(=O)N(C)[C@@H](CC(C)C)C(=O)N[C@H](C(=O)N2CCCCC2)CC(=O)N(C)CC(=O)N(C)[C@@H](C(C)C)C(=O)N[C@@H](CCC[C@@H]2CC(F)(F)CN2)C(=O)N(C)[C@@H](CC(C)C)C(=O)N[C@@H]([C@@H](C)O)C1=O [Compound H06] ([Sar][NMeV][X5][NMeL]T[NBuGly][NMeF][NMeL]V[NMeL]D-Piperidide; lactam N-11) : 0.27
CC[C@H](C)[C@@H]1NC(=O)[C@H](CC(C)C)N(C)C(=O)CCCN(C)C(=O)C[C@@H](C(=O)N2CCCCC2)NC(=O)[C@H](CC(C)C)N(C)C(=O)[C@H](CC(C)C)N(C)C(=O)[C@H]([C@@H](C)O)NC(=O)[C@H](CC(C)C)N(C)C(=O)[C@H](COC[C@@H]2CC(F)(F)CN2)NC(=O)[C@H](CC(C)C)N(C)C(=O)[C@H](Cc2ccccc2)N(C)C1=O [Compound G03] ([NMeGABA][NMeL]I[NMeF][NMeL]S(Pro(4,4-F2)ψ(CH2))[NMeL]T[NMeL][NMeL]D-Piperidide; lactam N-11) : 0.23
CCCCN1CC(=O)N(C)[C@@H](CC(C)C)C(=O)N[C@H](C(=O)N2CCCCC2)CC(=O)N(C)C(C)C(=O)N[C@@H](COC[C@@H]2CC(F)(F)CN2)C(=O)N(C)[C@@H](CC(C)C)C(=O)N(C)[C@@H](CC)C(=O)N[C@@H](C(C)C)C(=O)N(C)[C@@H](Cc2ccccc2)C(=O)N(C)[C@@H](CC(C)C)C(=O)N[C@@H]([C@@H](C)O)C1=O (stereo partly drawn) [Compound G05] ([ξNMeA]S(Pro(4,4-F2)ψ(CH2))[NMeL][NMeAbu]V[NMeF][NMeL]T[NBuGly][NMeL]D-Piperidide; lactam N-11) : 3.2
